Reference source for all entries: paper PMC4032265

Measured inhibition at 10 µM values are reported for all entries that follow.
- Tested Target: D3 dopaminergic receptor (Homo sapiens)
- Sequence (P35462 whole entry): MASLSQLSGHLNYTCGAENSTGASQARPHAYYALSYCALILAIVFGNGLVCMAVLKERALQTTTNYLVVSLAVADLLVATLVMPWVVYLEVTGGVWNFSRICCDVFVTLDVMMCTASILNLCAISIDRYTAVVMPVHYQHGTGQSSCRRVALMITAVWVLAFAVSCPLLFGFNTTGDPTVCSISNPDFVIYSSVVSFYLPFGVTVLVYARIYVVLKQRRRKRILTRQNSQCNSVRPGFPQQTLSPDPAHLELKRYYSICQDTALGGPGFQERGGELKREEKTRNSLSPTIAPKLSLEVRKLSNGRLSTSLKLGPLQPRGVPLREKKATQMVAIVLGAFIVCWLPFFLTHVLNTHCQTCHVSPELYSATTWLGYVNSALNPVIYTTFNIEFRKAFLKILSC
- Experimental Details: PDSP radioligand binding, D3
- Test Parameters: read-out: % inhibition at 10 µM; single concentration 10 µM

- Item Smiles: "CNC(=O)[C@@]12C[C@@H]1[C@@H](n1cnc3c(NCc4cccc(Cl)c4)nc(Cl)nc31)[C@H](O)[C@@H]2O"
  inhibition at 10 µM [%]: 22
- Item Smiles: "Fc1ccc(C#Cc2nc(NCc3cccc(Cl)c3)c3nc[nH]c3n2)cc1F"
  inhibition at 10 µM [%]: 23
- Item Smiles: "CNC(=O)[C@@]12C[C@@H]1[C@@H](n1cnc3c(NC)nc(C#Cc4ccc(F)c(F)c4)nc31)[C@H](O)[C@@H]2O"
  inhibition at 10 µM [%]: 4
- Item Smiles: "CNC(=O)[C@@]12C[C@@H]1[C@@H](n1cnc3c(NCc4cccc(Cl)c4)nc(C#Cc4ccccc4Cl)nc31)[C@H](O)[C@@H]2O"
  inhibition at 10 µM [%]: 7
- Item Smiles: "O[C@@H]1[C@H](O)[C@@H]2C[C@@H]2[C@H]1n1cnc2c(NCc3cccc(Cl)c3)ncnc21"
  inhibition at 10 µM [%]: 4
- Item Smiles: "CNC(=O)[C@@]12C[C@@H]1[C@@H](n1cnc3c(NCc4cccc(Cl)c4)nc(C#Cc4ccc(F)cc4)nc31)[C@H](O)[C@@H]2O"
  inhibition at 10 µM [%]: 4
- Item Smiles: "O[C@@H]1[C@H](O)[C@@H]2C[C@@H]2[C@H]1n1cnc2c(NC(C3CC3)C3CC3)nc(Cl)nc21"
  inhibition at 10 µM [%]: 8
- Item Smiles: "Clc1cccc(CNc2nc(Cl)nc3[nH]cnc23)c1"
  inhibition at 10 µM [%]: 6
- Item Smiles: "O[C@@H]1[C@H](O)[C@@H]2C[C@@H]2[C@H]1n1cnc2c(NCc3cccc(Cl)c3)nc(C#Cc3ccc(F)c(F)c3)nc21"
  inhibition at 10 µM [%]: 0

----------
Measured Ki values are reported for all entries that follow.
- Tested Target: β3 adrenergic receptor (Homo sapiens, UniProt P13945)
- Sequence (P13945 whole entry): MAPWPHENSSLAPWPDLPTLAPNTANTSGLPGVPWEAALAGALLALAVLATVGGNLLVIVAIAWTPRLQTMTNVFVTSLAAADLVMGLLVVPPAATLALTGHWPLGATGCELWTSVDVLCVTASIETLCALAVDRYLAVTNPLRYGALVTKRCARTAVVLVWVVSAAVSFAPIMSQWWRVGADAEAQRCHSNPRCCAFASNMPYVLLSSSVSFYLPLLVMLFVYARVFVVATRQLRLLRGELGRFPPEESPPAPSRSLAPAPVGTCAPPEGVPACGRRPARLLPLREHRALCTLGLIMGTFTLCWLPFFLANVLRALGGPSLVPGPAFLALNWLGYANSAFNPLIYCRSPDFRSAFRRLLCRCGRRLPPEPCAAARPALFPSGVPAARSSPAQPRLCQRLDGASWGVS

- Compound: "CNC(=O)[C@@]12C[C@@H]1[C@@H](n1cnc3c(NCc4cccc(Cl)c4)nc(C#Cc4ccccc4Cl)nc31)[C@H](O)[C@@H]2O [Compound 3]"
  Unit Text: "nM"
  Ki: 1170
- Compound: "CNC(=O)[C@@]12C[C@@H]1[C@@H](n1cnc3c(NCc4cccc(Cl)c4)nc(C#Cc4ccc(F)c(F)c4)nc31)[C@H](O)[C@@H]2O [Compound 1]"
  Unit Text: "nM"
  Ki: 1450
- Compound: "CNC(=O)[C@@]12C[C@@H]1[C@@H](n1cnc3c(NCc4cccc(Cl)c4)nc(C#Cc4ccc(F)cc4)nc31)[C@H](O)[C@@H]2O [Compound 2]"
  Unit Text: "nM"
  Ki: 1560
- Compound: "O[C@@H]1[C@H](O)[C@@H]2C[C@@H]2[C@H]1n1cnc2c(NCc3cccc(Cl)c3)nc(C#Cc3ccc(F)c(F)c3)nc21 [Compound 6]"
  Unit Text: "nM"
  Ki: 2460
- Compound: "CNC(=O)[C@@]12C[C@@H]1[C@@H](n1cnc3c(NC)nc(C#Cc4ccc(F)c(F)c4)nc31)[C@H](O)[C@@H]2O [Compound 5]"
  Unit Text: "nM"
  Ki: 2320
